Would you mind telling me the reported Activity of each entry?
# Species: Mus musculus
# protocol description: Toxicity in NMRI mouse assessed as irritant dose 50 causing ear redness after 24 hours assessed per ear
# Type: organism-based
# condition: in vivo

Form field: reported Activity of C=C(C)[C@]12C[C@@H](C)[C@@]34O[C@](Cc5ccccc5)(O[C@@H]1[C@@H]3C=C(COC(=O)CCCCC)C[C@]1(O)C(=O)C(C)=C[C@@H]41)O2
> 10 nmol

And then C=C(C)[C@]12C[C@@H](C)[C@@]34O[C@](C)(O[C@@H]1[C@@H]3C=C(CO)C[C@]1(O)C(=O)C(C)=C[C@@H]41)O2 , what is it?
12.9 nmol

And then C=C(C)[C@]12C[C@@H](C)[C@@]34O[C@](Cc5ccccc5)(O[C@@H]1[C@@H]3C=C(COC(=O)Cc1ccc(O)c(OC)c1)C[C@]1(O)C(=O)C(C)=C[C@@H]41)O2 , what is it?
> 20 nmol

And then C=C(C)[C@]12C[C@@H](C)[C@@]34O[C@](Cc5ccccc5)(O[C@@H]1[C@@H]3C=C(COC(=O)Cc1cc(OC)cc(OC)c1)C[C@]1(O)C(=O)C(C)=C[C@@H]41)O2 , what is it?
> 20 nmol

And then C=C(C)[C@]1(O)C[C@@H](C)[C@@]2(O)[C@@H](C=C(COC(=O)Cc3ccccc3)C[C@]3(O)C(=O)C(C)=C[C@@H]23)[C@H]1O , what is it?
> 100 nmol

And then C=C(C)[C@]1(O)C[C@@H](C)[C@@]2(O)[C@@H](C=C(CO)C[C@]3(O)C(=O)C(C)=C[C@@H]23)[C@H]1O , what is it?
> 100 nmol

And then C=C(C)[C@]12C[C@@H](C)[C@@]34O[C@](C)(O[C@@H]1[C@@H]3C=C(COC(=O)Cc1cc(OC)cc(OC)c1)C[C@]1(O)C(=O)C(C)=C[C@@H]41)O2 , what is it?
> 5 nmol

And then COC(=O)Cc1ccc(O)c(OC)c1 , what is it?
> 100 nmol

And then C=C(C)[C@]12C[C@@H](C)[C@@]34O[C@](Cc5ccccc5)(O[C@@H]1[C@@H]3C=C(COC(C)=O)C[C@]1(O)C(=O)C(C)=C[C@@H]41)O2 , what is it?
> 10 nmol

And then C=C(C)[C@]12C[C@@H](C)[C@@]34O[C@](Cc5ccccc5)(O[C@@H]1[C@@H]3C=C(COC(=O)Cc1ccc(OC)c(OC)c1)C[C@]1(O)C(=O)C(C)=C[C@@H]41)O2 , what is it?
> 20 nmol

And then C=C(C)[C@]12C[C@@H](C)[C@@]34O[C@](Cc5ccccc5)(O[C@@H]1[C@@H]3C=C(COC(=O)Cc1ccccc1)C[C@]1(O)C(=O)C(C)=C[C@@H]41)O2 , what is it?
> 10 nmol

And then C=C(C)[C@]12C[C@@H](C)[C@@]34O[C@](Cc5ccccc5)(O[C@@H]1[C@@H]3C=C(CO)C[C@]1(O)C(=O)C(C)=C[C@@H]41)O2 , what is it?
> 20 nmol
